# ASSAYED_SYSTEM: NAV 1.5 sodium-gated channel (Homo sapiens, UniProt Q14524)
# Sequence (Q14524 whole entry): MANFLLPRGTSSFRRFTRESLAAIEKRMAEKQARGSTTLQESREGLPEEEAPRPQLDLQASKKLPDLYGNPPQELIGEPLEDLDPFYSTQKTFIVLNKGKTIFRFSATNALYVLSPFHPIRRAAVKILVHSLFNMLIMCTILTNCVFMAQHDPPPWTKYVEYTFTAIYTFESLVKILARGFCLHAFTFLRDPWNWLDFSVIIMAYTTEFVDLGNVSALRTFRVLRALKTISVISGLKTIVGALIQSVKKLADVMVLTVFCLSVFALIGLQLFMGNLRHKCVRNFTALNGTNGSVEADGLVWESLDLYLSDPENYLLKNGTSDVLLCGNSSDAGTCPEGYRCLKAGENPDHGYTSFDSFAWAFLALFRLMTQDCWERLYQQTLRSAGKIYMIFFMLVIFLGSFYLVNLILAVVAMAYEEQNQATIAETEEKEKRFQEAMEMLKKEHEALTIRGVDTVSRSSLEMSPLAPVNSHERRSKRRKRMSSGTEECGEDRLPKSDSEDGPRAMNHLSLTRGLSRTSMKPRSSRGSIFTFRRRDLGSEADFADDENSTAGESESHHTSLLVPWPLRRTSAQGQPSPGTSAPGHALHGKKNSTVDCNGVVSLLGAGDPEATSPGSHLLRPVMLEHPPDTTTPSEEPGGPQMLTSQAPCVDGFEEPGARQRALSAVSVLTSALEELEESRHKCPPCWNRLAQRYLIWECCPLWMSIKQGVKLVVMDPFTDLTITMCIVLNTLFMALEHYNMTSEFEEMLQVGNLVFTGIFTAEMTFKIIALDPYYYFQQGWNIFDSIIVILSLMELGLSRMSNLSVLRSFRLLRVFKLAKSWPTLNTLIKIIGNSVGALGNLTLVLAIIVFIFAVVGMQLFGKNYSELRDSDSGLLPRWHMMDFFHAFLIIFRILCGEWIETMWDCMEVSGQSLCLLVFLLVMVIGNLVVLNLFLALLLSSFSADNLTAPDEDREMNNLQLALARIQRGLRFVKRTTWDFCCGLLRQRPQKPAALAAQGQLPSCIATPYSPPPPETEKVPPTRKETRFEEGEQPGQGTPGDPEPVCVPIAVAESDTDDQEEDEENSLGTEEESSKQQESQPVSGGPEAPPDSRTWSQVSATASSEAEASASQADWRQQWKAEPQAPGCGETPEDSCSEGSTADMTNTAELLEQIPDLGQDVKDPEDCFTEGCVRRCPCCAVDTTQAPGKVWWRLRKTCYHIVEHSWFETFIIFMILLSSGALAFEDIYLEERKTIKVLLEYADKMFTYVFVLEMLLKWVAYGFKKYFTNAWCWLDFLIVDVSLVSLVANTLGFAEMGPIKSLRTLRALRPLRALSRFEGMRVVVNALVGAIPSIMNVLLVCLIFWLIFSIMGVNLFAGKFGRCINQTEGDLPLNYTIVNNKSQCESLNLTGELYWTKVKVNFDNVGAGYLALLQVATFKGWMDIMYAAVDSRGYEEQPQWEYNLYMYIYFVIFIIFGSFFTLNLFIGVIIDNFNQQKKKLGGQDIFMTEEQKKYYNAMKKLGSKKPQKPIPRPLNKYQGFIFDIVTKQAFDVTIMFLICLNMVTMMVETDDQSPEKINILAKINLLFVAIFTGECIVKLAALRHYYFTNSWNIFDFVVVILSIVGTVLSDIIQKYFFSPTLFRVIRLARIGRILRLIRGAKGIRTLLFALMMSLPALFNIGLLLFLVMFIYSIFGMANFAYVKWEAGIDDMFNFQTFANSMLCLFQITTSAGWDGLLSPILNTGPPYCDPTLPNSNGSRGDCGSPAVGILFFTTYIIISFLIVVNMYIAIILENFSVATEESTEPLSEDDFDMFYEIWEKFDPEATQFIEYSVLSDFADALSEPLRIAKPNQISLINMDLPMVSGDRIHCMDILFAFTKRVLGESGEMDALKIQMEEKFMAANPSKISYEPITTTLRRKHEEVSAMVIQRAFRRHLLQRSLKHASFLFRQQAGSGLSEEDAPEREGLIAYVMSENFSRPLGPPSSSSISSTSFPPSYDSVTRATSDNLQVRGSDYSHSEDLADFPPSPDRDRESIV
MEASURED_METRIC: IC50
Please state the value followed by its unit.

Reported IC50 for `CN1CCN(c2ccc(NC(=O)c3ccc(C#N)o3)c(N3CCCCC3)c2)CC1` : what is it?
6.51 µM

###

# ASSAYED_SYSTEM: serotonin 5-HT3A receptor (Homo sapiens, UniProt P46098)
# Sequence (P46098 24-478): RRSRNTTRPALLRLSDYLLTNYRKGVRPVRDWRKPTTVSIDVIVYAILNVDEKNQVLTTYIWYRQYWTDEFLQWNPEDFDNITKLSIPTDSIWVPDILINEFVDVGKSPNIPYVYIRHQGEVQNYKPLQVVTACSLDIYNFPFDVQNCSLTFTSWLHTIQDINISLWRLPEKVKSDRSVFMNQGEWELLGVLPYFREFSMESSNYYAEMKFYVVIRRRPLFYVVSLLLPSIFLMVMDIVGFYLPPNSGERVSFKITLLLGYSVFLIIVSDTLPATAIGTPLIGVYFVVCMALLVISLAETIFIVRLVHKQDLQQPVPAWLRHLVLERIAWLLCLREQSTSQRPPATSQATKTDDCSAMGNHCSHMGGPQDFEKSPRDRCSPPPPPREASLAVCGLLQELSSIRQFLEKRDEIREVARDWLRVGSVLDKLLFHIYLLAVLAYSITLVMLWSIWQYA
MEASURED_METRIC: IC50 (µM)
Report as a plain number; the unit µM is understood.

# lookup: IC50 of CN1CCN(c2ccc(NC(=O)c3ccc(C#N)o3)c(N3CCCCC3)c2)CC1 [CPPC]
5.86
